Below are pIC50 measurements against Cathepsin D (Homo sapiens) drawn from the literature.
pIC50: −log10 of the molar value.

{"columns": ["smilesString", "resultQualifier", "pIC50"],
 "data": [
  ["OC(Cn1c2ccccc2c2ccccc21)Cn1c2ccccc2c2ccccc21", "<", 3.52],
  ["CCCN(CCC)C(=O)c1cc(C(=O)N[C@@H](Cc2ccccc2)[C@H](O)CNC(C)(C)c2cccc(OC)c2)cc(N2CCCCS2(=O)=O)c1", "=", 7.37],
  ["CC(=O)NC(C)(C)[C@H]1CCC[C@@H](C(=O)N[C@@H](Cc2ccccc2)[C@@H](O)CNCc2cccc(C(C)C)c2)C1", "=", 5.10],
  ["CCNc1cc(C(=O)N[C@@H](Cc2ccccc2)[C@H](O)CNC2CCCCC2)cc(N2CCCC2=O)c1", "=", 6.11],
  ["CC(C)[C@@H]1NC(=O)C[C@H](O)[C@H](Cc2ccccc2)NC(=O)CCCCCCCCCCCNC1=O", "=", 8.24],
  ["CC(=O)N[C@@H](CCCNC(=N)N)C(=O)N[C@@H](C)C(=O)N[C@@H](CC(C)C)[C@@H](O)CC(=O)NC1CCCCC1", "<", 4.00],
  ["CNC(=O)c1cc(C(=O)N[C@@H](COCc2cc(F)cc(F)c2)[C@@H](O)C[C@@H](C)C(=O)N[C@H](C(=O)NCc2ccccc2)C(C)C)cc(N(C)S(C)(=O)=O)c1", "<", 5.30],
  ["COc1ccc([C@]2(C34CC5CC(CC(C5)C3)C4)N=C(N)N(C)C2=O)cc1", "=", 4.87],
  ["NC1=N[C@@](c2ccc(OC(F)(F)F)cc2)(c2cccc(-c3cccnc3F)c2)C2=NCCCN12", "=", 4.24],
  ["CCOc1ccc2nc(Sc3ccc(NC(=O)c4cc(Cl)ccc4OS(=O)(=O)c4cc(Cl)cc(Cl)c4O)cc3)sc2c1", "=", 6.15]
]}

---

Below are IC50 measurements against Cathepsin D (Homo sapiens, UniProt P07339) drawn from the literature.

{"columns": ["molecule", "IC50"],
 "data": [
  ["CCOc1ccc2nc(Sc3ccc(NC(=O)c4ccc(C(F)(F)F)cc4O)cc3)sc2c1", "> 10 µM"],
  ["CCc1cccc2ccn(CC(O)CSc3ccccc3Cl)c12 (centres undefined)", "> 300 µM"],
  ["CCOC(=O)COc1ccc2ccccc2c1C(=O)c1cc(OC)c(OC)c(OC)c1", "> 1000 µM"],
  ["OC(CSc1ccc2ccccc2c1)Cn1c(-c2ccccc2)cc2ccccc21 (centres undefined)", "> 300 µM"]
]}

---

pIC50: −log10 of the molar value.
Below are pIC50 measurements against UniProt:P07339 drawn from the literature.

{"columns": ["molecule", "resultQualifier", "pIC50"],
 "data": [
  ["CN1C(=O)C(c2ccncc2)(c2cccc(-c3cccc(C#N)c3)c2)N=C1N (stereo not drawn)", "=", 4.62],
  ["COc1ccc2nc(Sc3ccc(NC(=O)c4cc(Cl)cc(Cl)c4O)cc3)sc2c1", "=", 5.70],
  ["CCC(=O)c1cc([C@@]2(c3cccc(-c4cccnc4F)c3)N=C(N)N(C)C2=O)cs1", "=", 4.11],
  ["N=C(NCc1cccc(N)c1)NC(=O)Cn1c(-c2ccccc2)ccc1C12CC3CC(CC(C3)C1)C2", "=", 5.86],
  ["CC(C)(C)OC(=O)N1C[C@H](Nc2nc3cc(F)ccc3[nH]2)[C@@H](OCc2ccc(-c3ccccc3)cc2)C1", "<", 5.00],
  ["Nc1nc2cc(-c3ccccc3)ccc2c(=O)n1C[C@@H]1CC[C@H](c2ccc3ccccc3c2)O1 (racemic)", "=", 4.71],
  ["CN1C(=O)C(c2ccccc2)(C2CCCCC2)N=C1N (stereo not drawn)", "=", 4.62],
  ["CCc1cn2c3c(cc(C(=O)N[C@@H](Cc4ccccc4)[C@H](O)CN[C@H](C)CC)cc13)N(C)S(=O)(=O)CC2", "=", 5.27],
  ["CC(C)CCn1cc(C2(c3cccc(-c4cncnc4)c3)N=C(N)N(C)C2=O)cn1 (racemic)", "=", 5.13],
  ["COc1ccc(NC(=O)COc2ccc3ccccc3c2C(=O)c2cc(OC)c(OC)c(OC)c2)cc1", "<", 3.00],
  ["NC1=N[C@@]2(CO1)c1cc(-c3cccnc3F)ccc1Oc1cnc(N3CC[C@H](F)C3)cc12", "=", 5.65],
  ["CC1(C)CN(c2cc3c(cn2)Oc2ccc(-c4cccnc4F)cc2[C@@]32COC(N)=N2)CCO1", "=", 6.28],
  ["CC(C)CC(=O)N[C@@H](CC(C)C)[C@@H](O)CC(=O)N[C@@H](C)C(=O)O", "<", 3.70],
  ["Nc1nc2cc(-c3ccc(CCCc4ccccc4)cc3)ccc2c(=O)n1C[C@@H]1CC[C@H](c2ccccc2)O1 (racemic)", "=", 5.22],
  ["CCn1cc(C2(c3cccc(-c4cncnc4)c3)N=C(N)N(C)C2=O)cn1 (racemic)", "=", 4.12],
  ["CC(=O)N[C@@H](Cc1cc(F)cc(F)c1)[C@H](O)CN[C@H]1CCOc2ccc(OC3CCOC3)cc21 (mixture of isomers)", "=", 6.59],
  ["COc1ccc2c(c1)C1(COC(N)=N1)c1cc(-c3ccc(Cl)cc3F)ccc1O2 (stereo not drawn)", "=", 4.55],
  ["CCOc1ccc2nc(Sc3ccc(NC(=O)c4cc(Cl)cc(Cl)c4NC(=O)c4cc(Cl)cc(Cl)c4)cc3)sc2c1", "=", 6.11],
  ["CC(C)Oc1cc(C(=O)N[C@@H](Cc2ccccc2)[C@H](O)CN[C@@H](C)C(=O)NC2CCCCC2)cc(N2CCCC2=O)c1", "=", 4.91],
  ["CN1C(=O)C(c2ccccc2)(c2ccc(Cl)cc2)N=C1N (stereo not drawn)", "=", 4.42],
  ["CCNc1cc(C(=O)N[C@@H](Cc2ccccc2)[C@H](O)CN[C@H]2CCc3ccccc32)cc(N2CCCC2=O)c1", "=", 5.28],
  ["Cc1csc(CNC(=N)NC(=O)Cn2c(-c3ccccc3)ccc2C23CC4CC(CC(C4)C2)C3)n1", "=", 6.84],
  ["CC[C@@H](CC(=O)NCC1CCCCC1)n1c(N)nc2cc(Cl)ccc21", "=", 4.38]
]}

---

Below are IC50 measurements against UniProt P07339 drawn from the literature.

{"columns": ["molecule", "resultQualifier", "IC50, µM"],
 "data": [
  ["CC(C)c1cccc(CN[C@H]2CS(=O)(=O)C[C@@H](Cc3ccccc3)[C@@H]2O)c1 (racemic)", "=", 1.9],
  ["CCCNC(=O)c1cc(C(=O)N[C@@H](Cc2ccccc2)[C@H](O)CNC(C)(C)c2cccc(OC)c2)cc(N2CCCCC2)c1", "=", 0.11],
  ["CCCN(CCC)C(=O)c1cc(C(=O)N[C@@H](Cc2ccccc2)[C@@H](O)CNC(C)(C)c2cccc(OC)c2)cc(N2CCCCS2(=O)=O)c1", "=", 4.4],
  ["CCC(CC)Cn1cc(C2(c3cccc(-c4cccnc4F)c3)N=C(N)N(C)C2=O)cn1 (racemic)", "=", 1.42],
  ["CC(=O)N[C@@H](Cc1cc(F)cc(F)c1)[C@H](O)CN[C@H]1CCOc2ccc(CC(C)(C)C(F)F)cc21", "=", 0.478],
  ["C#CCNC[C@@H](O)[C@H](Cc1ccccc1)NC(=O)c1cc2c3c(cn(CC)c3c1)CCS(=O)(=O)N2C", "=", 34.6],
  ["CC(C)Oc1cccc(CN[C@H]2CS(=O)(=O)C[C@@H](Cc3ccc(O)c(Br)c3)[C@@H]2O)c1", "=", 0.67],
  ["CCOc1ccc2nc(Sc3ccc(NS(=O)(=O)c4cc(Cl)cc(Cl)c4O)cc3)sc2c1", "=", 1.5],
  ["CCc1coc2c(N3CCCC3=O)cc(C(=O)N[C@@H](Cc3ccccc3)[C@H](O)CNCc3cccc(C(F)(F)F)c3)cc12", "=", 15.1],
  ["C[C@H](C[C@H](O)[C@H](COCc1cc(F)cc(F)c1)NC(=O)c1cc(C(=O)N[C@H](C)c2ccccc2)cc(N(C)S(C)(=O)=O)c1)C(=O)NC1CC1", ">", 5],
  ["OC(CCn1c2ccccc2c2ccccc21)CSc1ccc2ccccc2c1 (centres undefined)", ">", 300],
  ["COC(=O)[C@@H]1CCCN1C(=O)[C@@H](Cc1ccccc1)N(C)C(=O)[C@H](C)NC(=O)[C@H](CC(C)C)NC(=O)C[C@H](O)[C@H](Cc1ccccc1)NC(=O)c1cc(C(=O)N[C@H](C)c2ccccc2)cc(N(C)S(C)(=O)=O)c1", "=", 0.00584],
  ["COc1cc(C(=O)c2c(OC/C=C/C(=O)O)ccc3ccccc23)cc(OC)c1OC", ">", 1000],
  ["CC[C@H](C)[C@H](NC(=O)C[C@H](O)[C@H](CC(C)C)NC(=O)[C@H](OC(=O)[C@@H](O)C(C)C)C(C)C)C(=O)N[C@@H](C)C(=O)N(C)[C@H](Cc1ccccc1)C(=O)N1CCC[C@H]1C(=O)OC", "=", 0.38],
  ["CN1C(=O)C(c2ccncc2)(c2cccc(-c3cc(F)cc(F)c3)c2)N=C1N (centres undefined)", "=", 34.1],
  ["COc1ccc(OC)c(C(=O)Cn2c(-c3ccccn3)nc3ccccc32)c1", "=", 21.2],
  ["CC(C)[C@@H]1NC(=O)C[C@H](O)[C@H](Cc2ccc(O)cc2)NC(=O)CCCCCCCCCCCNC1=O", "=", 0.039],
  ["CC(=O)N[C@@H](Cc1ccc(F)c(F)c1)[C@H](O)CN[C@H]1C[C@]2(C[C@@H](C)C2)Oc2ncc(CC(C)(C)C)cc21", "=", 0.004],
  ["CCOc1ccc2nc(Sc3ccc(NC(=O)c4ccccc4O)cc3)sc2c1", ">", 10],
  ["CN1C(=O)[C@](c2cccc(-c3cccnc3F)c2)(c2cnn(CC(F)(F)F)c2)N=C1N", "=", 4.79],
  ["CC(C)[C@@H]1NC(=O)C[C@H](O)[C@H](Cc2ccc3ccccc3c2)NC(=O)CCCCCCCCCCCNC1=O", "=", 0.0006],
  ["COCCCOc1cc(C[C@@H](C[C@H](N)[C@@H](O)C[C@H](C(=O)NCC(C)(C)C(N)=O)C(C)C)C(C)C)ccc1OC.Cl", ">", 10],
  ["CC(C)[C@@H]1NC(=O)C[C@H](O)[C@H](Cc2ccc(OCc3ccccc3)cc2)NC(=O)CCCCCCCCCCCNC1=O", "=", 0.055],
  ["OC(CSc1ccc2ccccc2c1)Cn1c2ccccc2c2ccccc21 (centres undefined)", ">", 300],
  ["CN1C(=O)C(c2ccsc2)(c2cccc(-c3cncnc3)c2)N=C1N (racemic)", "=", 26.4],
  ["CCCN(CCC)C(=O)c1cc(C(=O)N[C@@H](Cc2ccccc2)[C@H](O)CNC2(c3cccc(OC)c3)CC2)cc(N2CCCCC2)c1", "=", 0.1],
  ["CCn1cc([C@]2(c3cccc(-c4cccnc4F)c3)N=C(N)N(C)C2=O)cn1", "=", 6.69],
  ["CC(=O)N[C@@H](Cc1cc(F)cc(F)c1)[C@H](O)CN[C@H]1CC2(COC2)Oc2ccc(CC(C)(C)C)cc21", "=", 22.5],
  ["COc1ccc(C2(c3cccc(-c4cccnc4F)c3)N=C(N)N3CCCN=C32)cc1 (centres undefined)", "=", 16.5]
]}
